Kindly state GI50 for each of the entries shown.
# System: CAKI-1
# test: NCI tumour cell line growth inhibition, 48 h
Calls of active or inactive are those of the source. Rule as the data show it: active = GI50 up to about 1.1 µM and inactive = higher.

Example results:
>  <compound>
COc1ccc(C(=O)/C=C/c2ccc(Oc3cc(C(=O)/C=C/c4ccc(O)cc4)c(O)cc3OC)cc2)c(O)c1 [RHUSCHALCONE I]

>  <GI50>
4.1 µM (inactive)

$$$$
>  <compound>
N=c1c2c(=S)n(-c3ccccc3)c(=S)n(-c3ccccc3)c2nc(SCCN2CCOCC2)n1-c1ccccc1

>  <GI50>
1.94 µM (inactive)

$$$$
>  <compound>
O=S(=O)(CCC[C@H]1[C@@H](CCOCc2ccccc2)C2CCCN1O2)c1ccccc1 (stereo not given in full)

>  <GI50>
> 100 µM (inactive)

$$$$
>  <compound>
COc1cc(C2SCC(=O)N2c2cccc(Cl)c2)cc(OC)c1OC (stereo not given)

>  <GI50>
55.7 µM (inactive)

$$$$
>  <compound>
O=C1CC(O)c2c(Br)sc(Br)c21 (stereo not given)

>  <GI50>
2.07 µM (inactive)

$$$$
>  <compound>
O=CC(I)=C(c1ccccc1)c1ccccc1

>  <GI50>
16.2 µM (inactive)

$$$$
>  <compound>
O=C1/C(=C/c2ccc([N+](=O)[O-])cc2)CNC/C1=C\c1ccc([N+](=O)[O-])cc1

>  <GI50>
1.79 µM (inactive)

$$$$
>  <compound>
Nc1c(Cl)ncnc1NCCCNc1ncnc(Cl)c1N

>  <GI50>
> 100 µM (inactive)

$$$$
>  <compound>
Cc1cc(C)nc(NS(=O)(=O)c2ccc(NC(=O)c3cccc4c(Nc5ccc(S(=O)(=O)Nc6nc(C)cc(C)n6)cc5)c5ccccc5nc34)cc2)n1

>  <GI50>
22.8 µM (inactive)

$$$$

**Q:** Which GI50 is listed for CC(C)(C)OC(=O)NC(Cc1ccc(OCc2ccccc2)cn1)C(N)=O (stereo not given) ?
**A:** > 100 µM (inactive)

###

# System: 786-0
# test: NCI tumour cell line growth inhibition, 48 h
Activity calls are given as the source filed them. Cut-off read from the data, not from the text of the source: active = GI50 up to about 1.1 µM and inactive = higher.
readout.type: GI50

Example results:
>  <compound>
O=C(CCN1CCN(c2cccc(Cl)c2)CC1)N1CCc2c([nH]c3ccccc23)C1c1cccnc1 (stereo not given)

>  <readout.type>
GI50

>  <experimental.result>
4.89 µM (inactive)

$$$$
>  <compound>
CCOC(=O)c1nc2ccc(C(F)(F)F)cc2nc1Nc1ccc(F)cc1

>  <readout.type>
GI50

>  <experimental.result>
45.3 µM (inactive)

$$$$

Okay, here is my list. What is GI50 for each of these?
1. O=CC(I)=C(c1ccccc1)c1ccccc1
2. O=S(=O)(CCC[C@H]1[C@@H](CCOCc2ccccc2)C2CCCN1O2)c1ccccc1 (stereo not given in full)
3. O=C(Nc1ccc(Cl)cc1Cl)C1C(=O)C(=O)N(c2ccc(Cl)cc2Cl)C1=O (stereo not given)

**A:**
["14.8 µM (inactive)", "> 100 µM (inactive)", "> 100 µM (inactive)"]

###

# Tested on: UACC-62
# test: NCI tumour cell line growth inhibition, 48 h
Active and inactive are the calls of the source. Rule as the data show it: active = GI50 up to about 1.1 µM and inactive = higher.
Could you please pick one outcome from this set? 1 (active), 0 (inactive)

>  <molecule>
Nc1nc(N)c2nc(CNc3ccc(C(=O)NC(CCC(=O)O)C(=O)O)cc3F)cnc2n1 (stereo not given)

>  <discrete.label>
1

$$$$
>  <molecule>
COc1cc2c3c(c1OC)C1(C=CC(=O)C=C1)C[C@H]3N(C)CC2

>  <discrete.label>
0

$$$$
>  <molecule>
N#C/C(=C1\SC(/N=N/c2ccccc2)C(=O)N1c1ccccc1)c1nc2ccccc2[nH]1 (stereo not given)

>  <discrete.label>
0

$$$$
>  <molecule>
O=C(NCCCNCCNC(=O)c1cc(-c2ccccc2)nc2ccccc12)c1cc(-c2ccccc2)nc2ccccc12

>  <discrete.label>
0

$$$$
>  <molecule>
C=C1CC/C=C(\C)CCC[C@H](C)[C@@H](O)[C@@H]2OC(=O)C(=C)[C@@H]2C[C@H]1O

>  <discrete.label>
0

$$$$

**Q:** # lookup: test call for `COc1cc(-c2ccccc2)cn2c1nc1ccccc12`
**A:** 0

**Q:** For `C#CC[C@]12CC(=O)CC[C@H]1CC1(C2)OCCO1` then?
**A:** 0

**Q:** For COc1ccc(-c2nc(-c3cnccn3)n(C3OC(CO)C(O)C3O)n2)cc1 (stereo not given) then?
**A:** 0

**Q:** For `CCOC(=O)CC/C(=N/Nc1ccc(Cl)cc1[N+](=O)[O-])C(=O)OCC` then?
**A:** 0

**Q:** For `O=C(N/C(=C\c1ccc([N+](=O)[O-])cc1)c1nc2ccccc2[nH]1)c1ccccc1` then?
**A:** 0
